B1: NLV3 TCR beta chain (CDR3β only) (parent)
chain: ASSPTGGSPSPLH

# Variants of: B1
# measurement.description: T-Switch: Jurkat TCRβ−/− cells expressing a CDR3 saturation-mutagenesis library, stained with two peptide-HLA-A*02:01 tetramers (original and novel peptide) plus anti-CD3, FACS-sorted into four gates, gDNA sequenced
# applied.conditions: with both tetramers (double-negative gate, binds neither): HLA-A*02:01 with … and with …, tetramers 1 µg/mL, 30 min on ice, SP, DP and SW gates expanded about 10 days between rounds ('two to three rounds of selection' in the Methods), gate DN: OPPOSITE: higher = more of the variant in the gate that binds neither peptide = LESS binding (or no expression; inferred). Fold enrichment of the CDR3 variant in one FACS gate of a two-tetram, unresolved parent, parent is a CDR3 fragment, scale: fold enrichment, numbering: sequential-on-construct, sequence starts at 1
Measured enrichment, listed per entry for reference.
Output: the number by itself.

Worked set:
INSERT INTO results (mutation_list, quantitative_readout) VALUES
  ('[…] (CDR3 as printed); S2P derived by comparing it with the table''s wild-type CDR3 ASSPTGGSPSPLH', 0.795),
  ('[…] (CDR3 as printed); H13P derived by comparing it with the table''s wild-type CDR3 ASSPTGGSPSPLH', 1);

Quick one: enrichment of […] (CDR3 as printed); G6T derived by comparing it with the table's wild-type CDR3 ASSPTGGSPSPLH ? 1.01

Quick one: enrichment of […] (CDR3 as printed); S3E derived by comparing it with the table's wild-type CDR3 ASSPTGGSPSPLH ? 0.814

Quick one: enrichment of […] (CDR3 as printed); S10I derived by comparing it with the table's wild-type CDR3 ASSPTGGSPSPLH ? 0.982

Quick one: enrichment of […] (CDR3 as printed); S3M derived by comparing it with the table's wild-type CDR3 ASSPTGGSPSPLH ? 0.806

Quick one: enrichment of […] (CDR3 as printed); S3T derived by comparing it with the table's wild-type CDR3 ASSPTGGSPSPLH ? 0.779

Quick one: enrichment of […] (CDR3 as printed); S2G derived by comparing it with the table's wild-type CDR3 ASSPTGGSPSPLH ? 0.981
